biological target: rat VMAT2-His (Rattus norvegicus); construct: The ORF of rat VMAT2 was subcloned into a pFastBac vector; His; made in house; host or cells: Sf9 insect cells (baculovirus); test: Differential scanning fluorimetry (DSF) with CPM dye: change of melting temperature of purified VMAT2; type: binding; conditions: Table S2 dose response, compound 0,37 µM; read-out: ΔTm
Structures can show the parent of a compound that is named as a salt.
REPORTED_ENDPOINT: ΔTm at 37 µM (°C)

>>> number("CC(C)(C)NC(=O)[C@@H]1C[C@@H]2CCCC[C@@H]2CN1C[C@@H](O)[C@H](Cc1ccccc1)NC(=O)[C@H](CC(N)=O)NC(=O)c1ccc2ccccc2n1 [Saquinavir mesylate]")
-0.28
>>> number("OCc1cc(C(O)CNCCCCCCOCCCCc2ccccc2)ccc1O (stereo not shown)")
6.25
>>> number("O=C1Cc2cc(CCN3CCN(c4nsc5ccccc45)CC3)c(Cl)cc2N1 [Ziprasidone, Ziprasidone Hydrochloride]")
0.68
>>> number("CC(C)COCC(CN(Cc1ccccc1)c1ccccc1)N1CCCC1 (stereo not shown) [Bepridil hydrochloride]")
-0.68

====

biological target: rat VMAT2-His (Rattus norvegicus, UniProt Q01827); construct: The ORF of rat VMAT2 was subcloned into a pFastBac vector; His; made in house; host or cells: Sf9 insect cells (baculovirus); test: Differential scanning fluorimetry (DSF) with CPM dye: change of melting temperature of purified VMAT2; type: binding; conditions: Table S2 dose response, compound 10 µM
Sequence (Q01827 whole entry): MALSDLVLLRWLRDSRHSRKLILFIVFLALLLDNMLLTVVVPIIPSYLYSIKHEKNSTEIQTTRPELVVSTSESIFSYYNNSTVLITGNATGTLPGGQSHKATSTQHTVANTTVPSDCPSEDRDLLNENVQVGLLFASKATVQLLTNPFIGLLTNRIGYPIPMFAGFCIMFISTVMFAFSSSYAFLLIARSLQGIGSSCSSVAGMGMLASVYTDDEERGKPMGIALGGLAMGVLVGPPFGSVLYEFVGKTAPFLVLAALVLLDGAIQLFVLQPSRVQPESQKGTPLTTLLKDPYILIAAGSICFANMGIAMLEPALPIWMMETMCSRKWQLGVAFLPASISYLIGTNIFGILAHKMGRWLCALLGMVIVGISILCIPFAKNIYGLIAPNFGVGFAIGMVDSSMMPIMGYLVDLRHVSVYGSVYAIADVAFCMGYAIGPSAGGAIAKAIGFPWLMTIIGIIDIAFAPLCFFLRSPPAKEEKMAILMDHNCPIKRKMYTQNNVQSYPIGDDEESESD
Measured ΔTm values are reported for all entries that follow.
REPORTED_ENDPOINT: ΔTm

>>> result("CC(C(O)c1ccc(O)cc1)N1CCC(Cc2ccccc2)CC1.CC(C(O)c1ccc(O)cc1)N1CCC(Cc2ccccc2)CC1.O=C(O)C(O)C(O)C(=O)O (stereo not shown) [Ifenprodil tartrate]")
"0,09 oC"
>>> result("Cl.Cl.OCCN1CCN(CC/C=C2/c3ccccc3Sc3ccc(Cl)cc32)CC1 [Zuclopenthixol dihydrochloride]")
"-0,07 oC"
>>> result("CCCCCCC[N+](CC)(CC)CCCCc1ccc(Cl)cc1.Cc1ccc(S(=O)(=O)[O-])cc1 [Clofilium tosylate]")
"-0,06 oC"
>>> result("CCSc1ccc2c(c1)N(CCCN1CCN(C)CC1)c1ccccc1S2.O=C(O)CC(O)C(=O)O.O=C(O)CC(O)C(=O)O [Thiethylperazine dimalate]")
"-1,01 oC"

====

target: rat VMAT2 P314A (Rattus norvegicus, UniProt Q01827, P314A); test: FFN206 uptake assay, VMAT2 mutant
Where a name gives a salt, the structure may show the parent alone.
Measured IC50 values are reported for all entries that follow.
REPORTED_ENDPOINT: IC50

>>> result("OCc1cc(C(O)CNCCCCCCOCCCCc2ccccc2)ccc1O (centres unmarked)")
"234 nM"
>>> result("O=C1Cc2cc(CCN3CCN(c4nsc5ccccc45)CC3)c(Cl)cc2N1 [Ziprasidone, Ziprasidone Hydrochloride]")
"132 nM"

====

Measured ΔTm values are reported for all entries that follow.
biological target: rat VMAT2-His (Rattus norvegicus, UniProt Q01827); construct: The ORF of rat VMAT2 was subcloned into a pFastBac vector; His; made in house; host or cells: Sf9 insect cells (baculovirus); assay: Differential scanning fluorimetry (DSF) with CPM dye: change of melting temperature of purified VMAT2; format: binding; conditions: Table S1, primary hits, average change in melting temperature vs controls, triplicates
Counter-ions that a name gives are not always drawn.
REPORTED_ENDPOINT: ΔTm

>>> result("CCCc1nn(C)c2c(=O)[nH]c(-c3cc(S(=O)(=O)N4CCN(C)CC4)ccc3OCC)nc12")
"1,10 ± 0,14 oC"
>>> result("CC(CCc1ccccc1)NCC(O)c1ccc(O)c(C(N)=O)c1 (centres unmarked) [Labetalol hydrochloride]")
"0,81 ± 0,07 oC"
>>> result("Clc1ccc(Cn2c(CN3CCCC3)nc3ccccc32)cc1 [Clemizole hydrochloride]")
"-1,46 ± 0,10 oC"
>>> result("CC(C)(C)c1ccc(C(O)CCCN2CCC(C(O)(c3ccccc3)c3ccccc3)CC2)cc1 (centres unmarked)")
"-13,22 ± 0,13 oC"
>>> result("C=CCc1ccccc1OCC(O)CNC(C)C (centres unmarked) [Alprenolol hydrochloride]")
"2,30 ± 0,05 oC"
>>> result("O=C(c1ccc(F)cc1)C1CCN(CCn2c(=O)[nH]c3ccccc3c2=O)CC1 [Ketanserin tartrate hydrate]")
"3,12 ± 0,24 oC"
>>> result("C[C@@H]1C[C@H]2[C@@H]3C[C@H](F)C4=CC(=O)C=C[C@]4(C)[C@@]3(Cl)[C@@H](O)C[C@]2(C)[C@H]1C(=O)COC(=O)C(C)(C)C [Clocortolone pivalate]")
"1,04 ± 0,11 oC"
>>> result("OC(c1cc(C(F)(F)F)nc2c(C(F)(F)F)cccc12)C1CCCCN1 (centres unmarked) [Mefloquine hydrochloride]")
"-11,15 ± 0,23 oC"
>>> result("Fc1ccc(C(OCCN2CCN(CCCc3ccccc3)CC2)c2ccc(F)cc2)cc1 [GBR 12909 dihydrochloride]")
"-17,11 ± 0,01 oC"
>>> result("C[C@H](CCC(=O)O)[C@H]1CC[C@H]2[C@@H]3[C@H](O)C[C@@H]4C[C@H](O)CC[C@]4(C)[C@H]3CC[C@]12C")
"1,98 ± 0,15 oC"
>>> result("CC(C(O)c1ccc(O)cc1)N1CCC(Cc2ccccc2)CC1.CC(C(O)c1ccc(O)cc1)N1CCC(Cc2ccccc2)CC1.O=C(O)C(O)C(O)C(=O)O (centres unmarked) [Ifenprodil tartrate]")
"1,23 ± 0,40 oC"
>>> result("Cc1cccc(C)c1NC(=O)CN1CCN(CCCC(c2ccc(F)cc2)c2ccc(F)cc2)CC1")
"1,35 ± 0,18 oC"
>>> result("CN1CCCC(n2nc(Cc3ccc(Cl)cc3)c3ccccc3c2=O)CC1 (centres unmarked) [Azelastine HCl]")
"0,85 ± 0,24 oC"
>>> result("C[C@H](CCC(=O)O)[C@H]1CC[C@H]2[C@@H]3C(=O)C[C@@H]4CC(=O)CC[C@]4(C)[C@H]3CC(=O)[C@]12C [Dehydrocholic acid]")
"1,51 ± 0,28 oC"
